System: OVCAR-8 ovarian
protocolSummary: NCI tumour cell line growth inhibition, 48 h
endpoint: TGI

Reference set, count: 3
# molecule, result
records = [
    ("CC(C)OP(=O)(CP(=O)(OC(C)C)OC(C)C)OC(C)C.[CH3][Sn]([Br])([Br])[Br]", "> 100 µM"),
    ("Cc1cccc(NC(=O)CC(=O)N2N=C(N3c4ccccc4Sc4ccccc43)CC2c2ccccc2)c1 (stereo not drawn)", "> 100 µM"),
    ("Cc1cs/c(=N\\C(P(=O)(O)O)P(=O)(O)O)n1C", "> 100 µM"),
]

Determine its reported TGI: COc1ccc2cccc(C(=N)c3ccc(C)c4c3CCC4)c2c1
24 µM

Determine its reported TGI: O=C1c2ccccc2S(=O)(=O)c2ccccc21
> 100 µM

Determine its reported TGI: c1ccc2c(c1)nc(NCCN1CCNCC1)c1c3ccccc3[nH]c21
0.883 µM

Determine its reported TGI: COc1ccc(N2C(=O)C3c4[nH]c5ccc(C)cc5c4C4CCC(C(C)C)CC4C3C2=O)cc1 (stereo not drawn)
> 100 µM

Determine its reported TGI: c1ccc2c3c(ccc2c1)CSCc1ccc2ccccc2c1-3
> 100 µM

The origin of these recorded values is PubChem BioAssay (NCI).
